- System: S. pneumoniae D39V
- method-summary: Bliss interaction score (quartile over a dose matrix) (fitness difference); higher = more antagonism (negative = synergy);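 further: first quartile when negative (synergy) and third quartile when positive (antagonism)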
measured-endpoint: Bliss interaction score

Previously resolved entries follow.
compound="CC[C@H]1OC(=O)[C@H](C)[C@@H](O[C@H]2C[C@@](C)(OC)[C@@H](O)[C@H](C)O2)[C@H](C)[C@@H](O[C@@H]2O[C@H](C)C[C@H](N(C)C)[C@H]2O)[C@](C)(O)C[C@@H](C)C(=O)[C@H](C)[C@@H](O)[C@]1(C)O [Erythromycin] + CN(N=O)C(=O)N[C@@H](C=O)[C@@H](O)[C@H](O)[C@H](O)CO [Streptozotocin]" experimental_value=-0.0459
compound="CN[C@H](CC(C)C)C(=O)N[C@H]1C(=O)N[C@@H](CC(N)=O)C(=O)N[C@H]2C(=O)N[C@H]3C(=O)N[C@H](C(=O)N[C@H](C(=O)O)c4cc(O)cc(O)c4-c4cc3ccc4O)[C@H](O[C@H]3C[C@](C)(N)[C@@H](O)[C@H](C)O3)c3ccc(c(Cl)c3)Oc3cc2cc(c3O[C@@H]2O[C@H](CO)[C@@H](O)[C@H](O)[C@H]2O[C@H]2C[C@](C)(NCc3ccc(-c4ccc(Cl)cc4)cc3)[C@@H](O)[C@H](C)O2)Oc2ccc(cc2Cl)[C@H]1O [Oritavancin] + Cc1cc(NS(=O)(=O)c2ccc(N)cc2)no1 [Sulfamethoxazol]" experimental_value=-0.0491
compound="CC[C@H]1OC(=O)[C@H](C)[C@@H](O[C@H]2C[C@@](C)(OC)[C@@H](O)[C@H](C)O2)[C@H](C)[C@@H](O[C@@H]2O[C@H](C)C[C@H](N(C)C)[C@H]2O)[C@](C)(O)C[C@@H](C)C(=O)[C@H](C)[C@@H](O)[C@]1(C)O [Erythromycin] + COc1c(N2C[C@@H]3CCCN[C@@H]3C2)c(F)cc2c(=O)c(C(=O)O)cn(C3CC3)c12 [Moxifloxacin]" experimental_value=0.101
compound="CC(=O)NC[C@H]1CN(c2ccc(N3CCOCC3)c(F)c2)C(=O)O1 [Linezolid] + Cc1ncc([N+](=O)[O-])n1CCO [Metronidazole]" experimental_value=0.143

The measured Bliss interaction score that CN[C@H](CC(C)C)C(=O)N[C@H]1C(=O)N[C@@H](CC(N)=O)C(=O)N[C@H]2C(=O)N[C@H]3C(=O)N[C@H](C(=O)N[C@H](C(=O)O)c4cc(O)cc(O)c4-c4cc3ccc4O)[C@H](O[C@H]3C[C@](C)(N)[C@@H](O)[C@H](C)O3)c3ccc(c(Cl)c3)Oc3cc2cc(c3O[C@@H]2O[C@H](CO)[C@@H](O)[C@H](O)[C@H]2O[C@H]2C[C@](C)(NCc3ccc(-c4ccc(Cl)cc4)cc3)[C@@H](O)[C@H](C)O2)Oc2ccc(cc2Cl)[C@H]1O [Oritavancin] + C[n+]1ccc(-c2cc[n+](C)cc2)cc1 [Paraquat] showed for S. pneumoniae D39V is -0.044

====

Provide the recorded Bliss interaction score for the entries that follow.
- Test system: S. aureus Newman
- method-summary: Bliss interaction score (quartile over a dose matrix) (fitness difference); higher = more antagonism (negative = synergy)

molecule="CC(=O)NC[C@H]1CN(c2ccc(N3CCOCC3)c(F)c2)C(=O)O1 [Linezolid] + Cc1onc(-c2ccccc2)c1C(=O)N[C@@H]1C(=O)N2[C@@H]1SC(C)(C)[C@@H]2C(=O)O [Oxacillin]" experimental_value=-0.0461

// Bliss interaction score value for CC[C@H]1OC(=O)[C@H](C)[C@@H](O[C@H]2C[C@@](C)(OC)[C@@H](O)[C@H](C)O2)[C@H](C)[C@@H](O[C@@H]2O[C@H](C)C[C@H](N(C)C)[C@H]2O)[C@](C)(O)C[C@@H](C)C(=O)[C@H](C)[C@@H](O)[C@]1(C)O [Erythromycin] + CN(C)C(=O)C(CCN1CCC(O)(c2ccc(Cl)cc2)CC1)(c1ccccc1)c1ccccc1 [Loperamide] : -0.039
